These entries and their values trace back to patent US11028051B2.

Target: BRD4-BD1 (Homo sapiens (Human), UniProt O60885)
Experiment: competitive TR-FRET assay, BET-BD with acetylated peptide ligand
Type: binding
Conditions: BRD4-BD1; Table 11 additional modifications; read-out: 4.1 EC50
pEC50: −log10 of the molar value.
Readout name: pEC50

CC(=O)Nc1cccc(-c2ccc3c(c2)[C@H](NC(=O)OC(C)C)C[C@H](C)N3C(C)=O)c1
6.17

[I] CC(=O)N1c2ccc(-c3ccc4cc[nH]c4c3)cc2[C@H](NC(=O)OC(C)C)C[C@@H]1C
[II] CC(=O)N1c2ccc(-c3cccc(NC(=O)CCc4ccccc4)c3)cc2[C@H](NC(=O)OC(C)C)C[C@@H]1C
[III] CC(=O)N1c2ccc(-c3cc4ccccc4[nH]3)cc2[C@H](NC(=O)OC(C)C)C[C@@H]1C
Please give the order of these compounds when sorted by pEC50, largest value leading. I'd appreciate it if you listed the labels in the requested order.
III, II, I

* * *

Biological target: BRD4(2) (Homo sapiens (Human), UniProt O60885)
Test: BROMOscan KD determination
Conditions: BROMOscan, Table 10
Readout name: Kd (nM)

COC(=O)c1ccc(N[C@@H]2C[C@H](C)N(C(C)=O)c3ccc(-c4cccc(NCCC(F)(F)F)c4)cc32)cc1
2.8
CC(=O)Nc1cccc(-c2ccc3c(c2)[C@H](Nc2ccccc2C(F)(F)F)C[C@H](C)N3C(C)=O)c1
6.4

[I] CCCOc1cccc(-c2ccc3c(c2)[C@H](Nc2ccc(C(=O)OC)cc2)C[C@H](C)N3C(C)=O)c1
[II] CC(=O)Nc1cccc(-c2ccc3c(c2)[C@H](Nc2ccc4ncccc4c2)C[C@H](C)N3C(C)=O)c1
Rank I against II by their Kd values and give the higher one. Write down the label attached to your selection.
I

* * *

Target: BRD2-BD2 (Homo sapiens (Human), UniProt P25440)
Sequence (P25440 344-453): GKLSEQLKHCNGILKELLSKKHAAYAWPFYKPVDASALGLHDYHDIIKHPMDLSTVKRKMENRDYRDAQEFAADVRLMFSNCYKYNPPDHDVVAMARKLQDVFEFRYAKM
Assay: competitive TR-FRET assay, BET-BD with acetylated peptide ligand
Type: binding
Conditions: ratio of BRD2-BD1 EC50 to BRD2-BD2 EC50 (selectivity)
Readout name: 2.1/2.2

Here's what some known entries look like.
CC(=O)N1c2ccc(-c3coc4ccccc34)cc2[C@H](NC(=O)OC(C)C)C[C@@H]1C
0.84
CC(=O)Nc1cccc(-c2ccc3c(c2)[C@H](Nc2cccc(OC(F)(F)F)c2)C[C@H](C)N3C(C)=O)c1
33
CC(=O)N1c2ccc(-c3cccc(N(CCC(C)C)CCC(C)C)c3)cc2[C@H](Nc2ccccc2OC(F)(F)F)C[C@@H]1C
16
CC(=O)N1c2ccc(-c3cccc(NC(=O)Cc4ccccc4)c3)cc2[C@H](NC(=O)OC(C)C)C[C@@H]1C
14
CC(=O)N1c2ccc(-c3cccc([N+](=O)[O-])c3)cc2[C@H](NC(=O)OC(C)C)C[C@@H]1C
7.0
CC(=O)Nc1cccc(-c2ccc3c(c2)[C@H](Nc2ccc(C(=O)O)cc2)C[C@H](C)N3C(C)=O)c1
3.1

[A] CC(=O)N1c2ccc(-c3ccnn3C)cc2[C@H](NC(=O)OC(C)C)C[C@@H]1C
[B] CC(=O)Nc1cccc(-c2ccc3c(c2)[C@H](Nc2ccc([N+](=O)[O-])cc2)C[C@H](C)N3C(C)=O)c1
[C] CCC(=O)N[C@@H]1C[C@H](C)N(C(C)=O)c2ccc(-c3cccc(NC(C)=O)c3)cc21
Please give the order of these molecules when sorted by 2.1/2.2, largest value leading. I'd appreciate it if you listed the labels in the requested order.
B, A, C
(B: 17, A: 4.8, C: 1.4)

[a] CC(=O)N1c2ccc(-c3ccn(-c4ccc(C#N)cc4)n3)cc2[C@H](Nc2ccc(C#N)cc2)C[C@@H]1C
[b] CC(=O)N1c2ccc(-c3cccc(NCC(C)C)c3)cc2[C@H](NC(=O)OC(C)C)C[C@@H]1C
[c] CC(=O)Nc1cccc(-c2ccc3c(c2)[C@H](Nc2ccc(C(=O)OC(C)(C)C)cc2)C[C@H](C)N3C(C)=O)c1
[d] CC(=O)Nc1cccc(-c2ccc3c(c2)[C@H](Nc2ccc(-c4nnn(C)n4)cc2)C[C@H](C)N3C(C)=O)c1
Please give the order of these molecules when sorted by 2.1/2.2, largest value leading. I'd appreciate it if you listed the labels in the requested order.
a, c, b, d

[A] CC(=O)N1c2ccc(-c3cccc(NC(=O)C(C)C)c3)cc2[C@H](NC(=O)OC(C)C)C[C@@H]1C
[B] CC(=O)N1c2ccc(-c3cccc(NC(=O)c4ccc(C)cc4)c3)cc2[C@H](NC(=O)OC(C)C)C[C@@H]1C
[C] CC(=O)Nc1cccc(-c2ccc3c(c2)[C@H](NC(=O)CC(C)C)C[C@H](C)N3C(C)=O)c1
Please give the order of these molecules when sorted by 2.1/2.2, largest value leading. I'd appreciate it if you listed the labels in the requested order.
A, B, C
